This listing pairs compounds with measured LD50.
experiment: Acute toxicity in the mouse, Weil method; conditions: in vivo, ip, mice, ep, Weil's method (N = 5, K = 4)
Structures can show the parent of a compound that is named as a salt.
endpoint-label: LD50 (mg/kg)

compound: C[N+](C)(C)CC(CC(=O)O)OC(=O)CCCS (centres unmarked) [4-mercapto butyryl carnitine Cl, hydrochloride]
measured-number: 303

compound: C[N+](C)(C)CC(CC(=O)O)OC(=O)CCS (centres unmarked) [3-mercapto propionyl carnitine Cl, hydrochloride]
measured-number: 312

###

system: damage provoked by irradiation in rats; experiment: Protection against X-ray exposure (survival after irradiation); type: in vivo, Albino Wister rats; settings: 30-40 mg Kg^-1 1 hour before irradiation and 15 mg Kg^-1 per day in the subsequent 20 days, day 10
Structures can show the parent of a compound that is named as a salt.
This listing pairs molecules with measured Percentage of surviving animals, day 10 from irradiation.
endpoint-label: Percentage of surviving animals, day 10 from irradiation (%)

molecule: CC(S)C(=O)OC(CC(=O)O)C[N+](C)(C)C (stereo not drawn) [2-mercapto propionyl carnitine Cl]
measured-on: damage provoked by irradiation in rats
measured-number: 80
--
molecule: C[N+](C)(C)CC(CC(=O)O)OC(=O)CS (stereo not drawn) [mercapto acetyl carnitine Cl]
measured-on: damage provoked by irradiation in rats
measured-number: 85
--
molecule: C[N+](C)(C)CC(CC(=O)O)OC(=O)CCCS (stereo not drawn) [4-mercapto butyryl carnitine Cl, hydrochloride]
measured-on: damage provoked by irradiation in rats
measured-number: 100
--
molecule: C[N+](C)(C)CC(CC(=O)O)OC(=O)CCS (stereo not drawn) [3-mercapto propionyl carnitine Cl, hydrochloride]
measured-on: damage provoked by irradiation in rats
measured-number: 90
--
molecule: CCC(S)C(=O)OC(CC(=O)O)C[N+](C)(C)C (stereo not drawn) [2-mercapto butyryl carnitine Cl]
measured-on: damage provoked by irradiation in rats
measured-number: 100
--
molecule: C[N+](C)(C)CC(CC(=O)O)OC(=O)CCCCS (stereo not drawn) [5-mercapto valeryl carnitine Cl]
measured-on: damage provoked by irradiation in rats
measured-number: 95
